Record form. Attribute: growth. Fill in for each entry.
system: IGROV1 ovarian; assay: NCI-60 one-dose screen, 48 h (100 = growth as untreated, 0 = no growth, -100 = all killed); conditions: 10 µM unless noted
The panel holds about 83,000 compounds, 20% with a hit somewhere; the sample as a whole holds those more often.
One number for each entry, in %.

Check out these entries, answers already filled in.
{"Compound": "CN(C)CCCC1(c2ccc(F)cc2)OCc2cc(-c3cc4ccccc4s3)ccc21 (stereo not drawn)", "growth / %": -28}
{"Compound": "O=C1/C(=C\\c2cccc3nccnc23)SC(=S)N1CCc1ccc(O)cc1", "growth / %": 95.4}
{"Compound": "CC1=CC(c2ccco2)=C2C(N)=NNC2N1 (stereo not drawn)", "growth / %": 86.9}

# return growth for each item in the list
1. CN1CCN(c2ccc(NC(=O)c3cncnc3Nc3ccc(OCc4cccc(F)c4)c(Cl)c3)cc2)CC1
2. N#Cc1cccc(C2C3=C(COC3=O)N(CCO)c3cc4c(cc32)CCC4)c1 (stereo not drawn)
3. O=S(=O)(NCCNc1nccc(-c2c(-c3ccc(F)c(O)c3)nc3sccn23)n1)c1ccc(F)cc1
4. CCS/C(Nc1ccccc1)=C(\C#N)C(=O)Nc1ccc(OC)cc1
5. CCO/C=N/C1=C(C#N)C(c2ccc(F)cc2)c2sc3c(F)cccc3c2O1 (stereo not drawn)
6. O=[N+]([O-])c1cc(NS(=O)(=O)c2ccccc2)ccc1NS(=O)(=O)c1ccccc1

Out:
[91.6, 22.5, 12.2, 55.7, 50.3, 119]

The reported measurements were obtained from PubChem BioAssay (NCI).
